- Target Or Test System: T1, Human EphA2 (human, UniProt P29317 24-976)
- T1 construct: Endogenous EphA2 in fresh frozen human tumor tissue sections, not a recombinant protein; also called ephrin receptor A2; hEphA2
- Assay Explanation: IHC/IF on frozen human tumor tissue: CRC
Quantity Name: IHC score

Query IHC score for AB-009815 (antibody, mouse IgG2a, V domains shown, Made on a mouse IgG2a framework) VH: QVQLQQWGAGLLKPSETLSLTCAVYGGSFSDYYWSWIRQPPGKGLEWIGEVNHRGSINYNNYNPSLKSRVTISVDTSKNQFSLKLTSVTAADTAVYYCAKPLRPHCTNGVCYSGDAFDIWGQGTMVTVAS VL: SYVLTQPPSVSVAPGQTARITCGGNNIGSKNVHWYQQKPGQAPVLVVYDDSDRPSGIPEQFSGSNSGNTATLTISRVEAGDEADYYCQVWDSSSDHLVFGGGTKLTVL
1
